Target: human recombinant Dipeptidyl peptidase IV enzyme (DPP-IV) (Homo sapiens)
Sequence (P27487 whole entry): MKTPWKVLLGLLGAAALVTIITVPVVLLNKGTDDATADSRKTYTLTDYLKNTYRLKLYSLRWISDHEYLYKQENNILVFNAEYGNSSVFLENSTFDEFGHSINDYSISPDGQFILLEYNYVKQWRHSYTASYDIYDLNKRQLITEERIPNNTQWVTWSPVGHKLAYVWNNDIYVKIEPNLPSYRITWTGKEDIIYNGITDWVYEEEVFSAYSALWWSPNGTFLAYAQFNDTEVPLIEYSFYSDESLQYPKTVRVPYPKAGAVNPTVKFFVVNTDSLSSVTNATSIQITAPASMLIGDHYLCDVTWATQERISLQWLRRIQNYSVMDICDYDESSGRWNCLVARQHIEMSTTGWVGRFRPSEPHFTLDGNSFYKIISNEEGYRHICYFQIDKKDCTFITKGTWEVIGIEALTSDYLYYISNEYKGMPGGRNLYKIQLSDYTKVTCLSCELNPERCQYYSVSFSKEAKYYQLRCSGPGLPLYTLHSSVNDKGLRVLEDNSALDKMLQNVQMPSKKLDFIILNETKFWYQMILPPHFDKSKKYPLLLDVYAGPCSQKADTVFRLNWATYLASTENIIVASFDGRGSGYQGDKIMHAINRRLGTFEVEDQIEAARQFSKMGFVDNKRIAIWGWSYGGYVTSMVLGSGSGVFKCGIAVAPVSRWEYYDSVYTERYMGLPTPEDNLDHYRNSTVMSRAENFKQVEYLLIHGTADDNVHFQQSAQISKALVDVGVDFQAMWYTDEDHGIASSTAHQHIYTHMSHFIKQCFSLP
Test: in-vitro DPP-IV assay (cleavage of AMC from Gly-Pro-AMC)
Conditions: human recombinant DPP-IV, Gly-Pro-AMC substrate, 30° C., 30 minutes; read-out: DPP-IV inhibition using human recombinant DPP-IV enzyme, IC50
pIC50: −log10 of the molar value.
recorded.metric: pIC50

>>> value_reported("N#C[C@@H]1CCCN1C(=O)CN[C@H]1CC[C@@H](CN2CCN(c3ccccc3)CC2)C1")
7.49

[a] N#C[C@@H]1CCCN1C(=O)CN[C@H]1CC[C@@H](Cn2cncn2)C1
[b] N#C[C@@H]1CCCN1C(=O)CN[C@@H]1CC[C@H](Cn2cncn2)C1 [Example-37]
In terms of reported pIC50, does a or b have the smaller number? Reply with the label of the item you choose.
a

---

Biological target: human recombinant Dipeptidyl peptidase IV enzyme (DPP-IV) (Homo sapiens)
Experiment: in-vitro DPP-IV assay (cleavage of AMC from Gly-Pro-AMC)
Details: human recombinant DPP-IV, Gly-Pro-AMC substrate, 30° C., 30 minutes; read-out: DPP-IV inhibition using human recombinant DPP-IV enzyme, IC50
pIC50: −log10 of the molar value. Counter-ions that a name gives are not always drawn.
recorded.metric: pIC50

>>> value_reported("N#C[C@@H]1C[C@H](F)CN1C(=O)CN[C@@H]1CC[C@H](Cn2cncn2)C1 [Example-43, hydrochloride]")
8.20

[A] N#C[C@@H]1C[C@H](F)CN1C(=O)CN[C@H]1CC[C@@H](Cn2ccnn2)C1
[B] N#CC[C@H]1CC[C@@H](NCC(=O)N2CCC[C@H]2C#N)C1
Sort A and B by pIC50 descending and give the first. Lab note: record the label of whichever item you select.
A
(A: 8.23, B: 7.65)

[A] N#CC1CCN(C[C@H]2CC[C@@H](NCC(=O)N3CCC[C@H]3C#N)C2)CC1 (mixture of isomers)
[B] N#C[C@@H]1C[C@H](F)CN1C(=O)CN[C@@H]1CC[C@@H](Cn2cncn2)C1
[C] N#C[C@@H]1CCCN1C(=O)CN[C@@H]1CC[C@H](Cn2nnc(-c3ccc(F)cc3)n2)C1
Sequence the entries by pIC50, beginning with the highest number. // respond by listing labels in the order requested
B, C, A
(B: 8.29, C: 8.06, A: 7.48)

[1] N#CC[C@@H]1CC[C@H](NCC(=O)N2CCC[C@H]2C#N)C1
[2] N#Cc1cccn1C[C@H]1CC[C@@H](NCC(=O)N2CCC[C@H]2C#N)C1
Task for the reader: decide whether 1 or 2 has the larger pIC50. Indicate which entry you chose by stating its label.
2
(2: 8.23, 1: 7.66)

---

Biological target: human recombinant Dipeptidyl peptidase IV enzyme (DPP-IV) (Homo sapiens)
Construct: purchased R&D Systems Inc. of Minneapolis, Minn
Experiment: in-vitro DPP-IV assay (cleavage of AMC from Gly-Pro-AMC)
Type: biochemical
Details: human recombinant DPP-IV, Gly-Pro-AMC substrate, 30° C., 30 minutes; read-out: DPP-IV inhibition using human recombinant DPP-IV enzyme, IC50
recorded.metric: IC50 (nM)

>>> value_reported("N#C[C@@H]1C[C@H](F)CN1C(=O)CN[C@@H]1CC[C@H](Cc2ccccc2)C1")
6.06

[A] N#C[C@@H]1CCCN1C(=O)CN[C@@H]1CC[C@H](Cn2cnnn2)C1 [Example-59]
[B] N#C[C@@H]1CCCN1C(=O)CN[C@@H]1CC[C@H](CN2Cc3ccccc3C2)C1
Please tell me which of the two, A or B , has the higher reported IC50 value. Select an item and report its label.
B
(B: 13.2 nM, A: 9.12 nM)
